Each recorded value in this set is attributed to patent US20240132622A1.

molecular target: T1, recombinant human PAD4 (human, UniProt Q9UM07 1-663); experiment: SPR 37 C, captured antibody, PAD4 analyte, 1 mM CaCl2
T1 construct: also called rhPAD4; hPAD4
T1 sequence (Q9UM07 whole entry): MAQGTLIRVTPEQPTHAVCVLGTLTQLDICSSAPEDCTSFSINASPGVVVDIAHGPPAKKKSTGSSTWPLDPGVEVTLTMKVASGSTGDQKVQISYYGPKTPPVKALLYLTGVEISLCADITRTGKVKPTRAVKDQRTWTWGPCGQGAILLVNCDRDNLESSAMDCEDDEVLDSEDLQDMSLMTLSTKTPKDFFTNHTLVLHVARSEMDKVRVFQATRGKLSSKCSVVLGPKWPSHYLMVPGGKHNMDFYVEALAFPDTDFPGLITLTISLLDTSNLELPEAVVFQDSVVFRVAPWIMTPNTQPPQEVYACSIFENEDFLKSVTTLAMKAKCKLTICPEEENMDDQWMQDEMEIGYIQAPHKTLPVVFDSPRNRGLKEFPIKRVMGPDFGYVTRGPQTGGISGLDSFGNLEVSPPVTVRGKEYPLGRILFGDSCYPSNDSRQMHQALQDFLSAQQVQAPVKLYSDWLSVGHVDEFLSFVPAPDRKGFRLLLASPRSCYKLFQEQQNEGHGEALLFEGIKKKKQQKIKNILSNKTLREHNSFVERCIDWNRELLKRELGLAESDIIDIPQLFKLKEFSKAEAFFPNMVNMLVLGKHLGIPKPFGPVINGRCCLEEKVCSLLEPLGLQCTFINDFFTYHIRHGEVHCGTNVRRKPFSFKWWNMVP
REPORTED ENDPOINT: pKd
// scale note: pKd = -log10(conc_M); give the bare number

{"BINDER": "hz13-1 (antibody, V domains shown, light constant region not tied to this antibody) VH: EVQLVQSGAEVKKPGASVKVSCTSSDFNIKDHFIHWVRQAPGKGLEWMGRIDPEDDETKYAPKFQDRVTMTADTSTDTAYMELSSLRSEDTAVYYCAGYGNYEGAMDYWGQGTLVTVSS VL: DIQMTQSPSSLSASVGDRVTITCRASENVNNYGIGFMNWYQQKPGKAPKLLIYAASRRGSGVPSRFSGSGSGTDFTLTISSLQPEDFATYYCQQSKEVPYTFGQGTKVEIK", "pKd": 9.70}
{"BINDER": "hz13-11 (antibody, V domains shown, light constant region not tied to this antibody) VH: EVQLVQSGAEVKKPGATVKISCTSSDFNIKDHFIHWVQQAPGKGLEWMGRIDPEDDETKYAPKFQDRVTITADTSTDTAYMELSSLRSEDTAVYYCAGYGNYEGAMDYWGQGTTVTVSS VL: DVVMTQSPLSLPVTLGQPASISCRASENVNNYGIGFMNWFQQRPGQSPRRLIYAASRRGSGVPDRFSGSGSGTDFTLKISRVEAEDVGVYYCQQSKEVPYTFGGGTKVEIK", "pKd": 10.00}

Qu. Read the entry hz20-6 (antibody, V domains shown, light constant region not tied to this antibody) VH: QVQLVQSGAEVKKPGASVKLSCKATGYTFTNYGISWVRQAPGQGLEWIGEIYPRSGNTYHNEKFKDRVTLTADKSSSTAYMEFRSLRSDDTAVYFCARSMITTRYWYFDVWGQGTLVTVSS VL: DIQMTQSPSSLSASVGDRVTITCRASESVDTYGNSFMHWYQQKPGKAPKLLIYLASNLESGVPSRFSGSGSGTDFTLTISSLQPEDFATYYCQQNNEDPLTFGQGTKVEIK and write its reported pKd.
Ans. 9.22

Qu. Answer with the recorded pKd of hz13-5 D31E (antibody, V domains shown, IgG1.3f; also called clone 13-based hz13-5 D31E) VH: EVLLVQSGAEVKKPGASVKLSCTSSDFNIKEHFIHWVRQAPGKGLEWMGRIDPEDDETKYAPKFQDRVTMTADTSTDTAYMELSSLRSEDTAVFYCAGYGNYEGAMDYWGQGTLVTVSS VL: DIQMTQSPSSLSASVGDRVTITCRASENVNNYGIGFMNWFQQKPGKAPKLLIYAASRRGSGVPSRFSGSGSGTDFTLTISSLQPEDFATYFCQQSKEVPYTFGQGTKVEIKR only.
Ans. 9.83

Qu. Please look at this binder and report its pKd: hz13-12 (antibody, IgG1, V domains shown, also called clone 13-based hz13-12 antibody) VH: EVQLVQSGAEVKKPGATVKISCTSSDFNIKDHFIHWVQQAPGKGLEWMGRIDPEDDETKYAPKFQDRVTITADTSTDTAYMELSSLRSEDTAVYYCAGYGNYEGAMDYWGQGTTVTVSS VL: DVVMTQSPLSLPVTLGQPASISCRASENVNNYGIGFMNWFQQRPGQSPRLLIYAASRRGSGVPDRFSGSGSGTDFTLKISRVEEEDVGVYYCQQSKEVPYTFGGGTKVEIK
Ans. 10.00

Qu. Return reported pKd. Input binder: hz20-14 (antibody, V domains shown, light constant region not tied to this antibody) VH: QVQLVQSGAEVKKPGASVKVSCKASGYTFTNYGISWVRQRPGQGLEWMGEIYPRSGNTYHNEKFKDRVTMTTDKSTSTAYMELRSLRSEDTAVYYCARSMITTRYWYFDVWGKGTTVTVSS VL: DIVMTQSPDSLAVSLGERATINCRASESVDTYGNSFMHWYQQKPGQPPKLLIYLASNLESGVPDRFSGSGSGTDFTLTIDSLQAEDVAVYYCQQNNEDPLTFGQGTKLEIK
Ans. 9.22

Qu. Output pKd of hz20-3 (antibody, V domains shown, light constant region not tied to this antibody) VH: EVQLVQSGAEVKKPGASVKVSCKASGYTFTNYGISWVRQAPGQGLEWMGEIYPRSGNTYHNEKFKDRVTMTADKSTSTAYMELRSLRSDDTAVYFCARSMITTRYWYFDVWGQGTLVTVSS VL: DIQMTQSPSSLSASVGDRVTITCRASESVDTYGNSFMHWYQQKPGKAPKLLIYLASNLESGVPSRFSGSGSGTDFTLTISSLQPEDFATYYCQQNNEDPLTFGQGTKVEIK
Ans. 9.30

Qu. Specify measured pKd for hz20-4 (antibody, V domains shown, light constant region not tied to this antibody) VH: QVQLVQSGAEVKKPGASVKVSCKASGYTFTNYGISWVRQAPGQGLEWMGEIYPRSGNTYHNEKFKDRVTMTADTSTSTVYMELSSLRSEDTAVYYCARSMITTRYWYFDVWGKGTTVTVSS VL: DIVMTQSPDSLAVSLGERATINCRASESVDTYGNSFMHWYQQKPGQPPKLLIYLASNLESGVPDRFSGSGSGTDFTLTISSLQAEDVAVYYCQQNNEDPLTFGAGTKLELK .
Ans. 8.77

Qu. Identify pKd associated with the binder hz13-5 (antibody, IgG1, V domains shown, also called clone 13-based hz13-5 antibody; parent hz13-5) VH: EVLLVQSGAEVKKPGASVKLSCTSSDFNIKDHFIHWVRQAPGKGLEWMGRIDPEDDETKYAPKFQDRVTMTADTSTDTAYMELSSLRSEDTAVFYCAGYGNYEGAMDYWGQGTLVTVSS VL: DIQMTQSPSSLSASVGDRVTITCRASENVNNYGIGFMNWFQQKPGKAPKLLIYAASRRGSGVPSRFSGSGSGTDFTLTISSLQPEDFATYFCQQSKEVPYTFGQGTKVEIK
Ans. 10.00

Qu. Consider the binder hz13-8 (antibody, V domains shown, light constant region not tied to this antibody) VH: EVLLVQSGAEVKKPGASVKLSCTSSDFNIKDHFIHWVRQAPGKGLEWIGRIDPEDDETKYAPKFQDRVTITADTSTDTAYLELSSLRSEDTAVFYCAGYGNYEGAMDYWGQGTLVTVSS VL: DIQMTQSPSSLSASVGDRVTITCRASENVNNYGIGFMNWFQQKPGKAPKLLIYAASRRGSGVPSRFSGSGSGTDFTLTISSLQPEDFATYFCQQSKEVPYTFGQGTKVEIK and give its recorded pKd.
Ans. 10.00
